Origin of values: patent US7875607B2

# Measurement target: porcine leukocyte 12/15-lipoxygenase (Sus scrofa, UniProt P16469)
# Sequence (P16469 1-663): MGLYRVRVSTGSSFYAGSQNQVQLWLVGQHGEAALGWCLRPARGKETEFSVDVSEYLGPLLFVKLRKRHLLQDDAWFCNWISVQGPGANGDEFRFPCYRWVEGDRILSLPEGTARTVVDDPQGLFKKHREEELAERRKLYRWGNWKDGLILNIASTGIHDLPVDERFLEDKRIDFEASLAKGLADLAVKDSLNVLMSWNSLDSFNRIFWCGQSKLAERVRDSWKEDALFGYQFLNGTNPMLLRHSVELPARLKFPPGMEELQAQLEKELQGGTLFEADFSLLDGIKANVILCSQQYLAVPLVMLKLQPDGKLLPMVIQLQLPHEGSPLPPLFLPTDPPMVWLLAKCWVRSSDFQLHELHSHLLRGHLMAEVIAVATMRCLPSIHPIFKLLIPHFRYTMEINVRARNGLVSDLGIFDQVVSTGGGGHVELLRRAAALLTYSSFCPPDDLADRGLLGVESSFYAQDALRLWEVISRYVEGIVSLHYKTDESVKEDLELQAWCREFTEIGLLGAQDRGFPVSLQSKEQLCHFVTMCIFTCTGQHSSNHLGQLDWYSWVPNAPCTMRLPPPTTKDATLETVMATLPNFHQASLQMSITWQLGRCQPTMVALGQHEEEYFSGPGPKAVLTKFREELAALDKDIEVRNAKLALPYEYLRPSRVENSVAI
# Method summary: 12/15-Lipoxygenase enzyme assay
# Assay context: 70 μM arachidonic acid, pH 7.4; read-out: IC50, inhibition of 12/15-Lipoxygenase
pIC50: −log10 of the molar value.
Reported property: pIC50

Give pIC50 (porcine leukocyte 12/15-lipoxygenase (Sus scrofa, UniProt P16469)) of the following molecule: CC1(C)CCc2cc(O)c3c(c2O1)C1CCC3C1 (stereo not drawn)
≥ 5.00

One more molecule: CC(C)CSCCCC1(C)CCc2cc(O)c3c(c2O1)C1CCC3C1 (stereo not drawn)
≥ 5.00

One more molecule: "CC1(C)C=Cc2cc(O)c3c(c2O1)C1CCC3CC1"
≥ 5.00

One more molecule: CC1(CCCSc2ccncc2)CCc2cc(O)c3c(c2O1)C1CCC3C1 (stereo not drawn)
≥ 5.00

One more molecule: CC1(c2cccs2)CCc2cc(O)c3c(c2O1)C1CCC3C1 (stereo not drawn)
≥ 5.00

One more molecule: "Cc1c(O)c2c(c3c1CCC(C)(C)O3)C1CCC2CC1"
≥ 5.00

One more molecule: CC1(CCCSc2nccs2)CCc2cc(O)c3c(c2O1)C1CCC3C1 (stereo not drawn)
≥ 5.00

One more molecule: "CC1(C)CCc2cc(O)c3c(c2O1)C1CCC3CC1"
≥ 5.00

One more molecule: CC1(c2nccs2)CCc2cc(O)c3c(c2O1)C1CCC3C1 (stereo not drawn)
≥ 5.00
